Literature-derived pIC50 for human eIF4E protein (Homo sapiens, UniProt P06730) follows.
pIC50: −log10 of the molar value.

COCCOc1cc(-c2nc(Nc3ncc(-c4cccs4)cc3C(=O)O)sc2CCC(C)C)ccc1F ... ≥ 6.30
O=C(O)CC1CCCN1c1nc(-c2ccc(-c3cnco3)cc2)cs1 (stereo not shown) ... < 4.60
NC(=O)c1ncccc1-c1ccc(-c2nc(-c3ccc(Cl)c(Cl)c3)cs2)cc1C(=O)O ... 5.89
O=C(O)C1CN(c2nc(-c3ccc(-c4ccc(F)cc4)cc3)c(-c3ccccc3)s2)CCO1 (stereo not shown) ... > 5.30
N#Cc1cc(-c2ccc(-c3nc(-c4ccc(Cl)c(Cl)c4)cs3)cc2C(=O)O)ccc1Cl ... 5.72

query: Could you tell me which pIC50 is on file for `O=C(O)c1cc(-c2nc(-c3ccc(Cl)c(Cl)c3)cs2)ccc1-c1ccc(C(F)(F)F)cc1Cl` ?
result: 5.80

query: Could you tell me which pIC50 is on file for `CC(C)Cc1sc(Nc2ncc(-c3cccs3)cc2C(=O)O)nc1-c1cccc(Oc2ccccc2)c1` ?
result: ≥ 6.30

query: Could you tell me which pIC50 is on file for `CN(C)CCCNC(=O)c1ccc(-c2ccc(-c3nc(-c4ccc(Cl)c(Cl)c4)cs3)cc2C(=O)O)cc1` ?
result: < 4.10

query: Could you tell me which pIC50 is on file for `COCCOc1ccc(-c2nc(Nc3ncc(-c4cccs4)cc3C(=O)O)sc2C2CC2)cc1F` ?
result: 6.00 to 6.30

query: Could you tell me which pIC50 is on file for CC(CNc1nc(-c2ccc(-c3ccc(F)cc3)cc2)c(-c2cccc3[nH]ccc23)s1)C(=O)O (stereo not shown) ?
result: 4.60 to 5.30

query: Could you tell me which pIC50 is on file for `COc1cccc(-c2ccc(-c3nc(-c4ccc(Cl)c(Cl)c4)cs3)cc2C(=O)O)n1` ?
result: 5.01

query: Could you tell me which pIC50 is on file for `CC(C)Cc1sc(Nc2ncc(-c3cccs3)cc2C(=O)O)nc1-c1cccc(OCC(F)(F)F)c1` ?
result: ≥ 6.30

query: Could you tell me which pIC50 is on file for `O=C(O)C1(CNc2nc(-c3ccc(Oc4ccccc4)cc3)c(-c3cncnc3)s2)CC1` ?
result: < 4.60

query: Could you tell me which pIC50 is on file for `O=C(O)C1CN(c2nc(-c3ccc(Oc4ccccc4)cc3)c(-c3cccnc3)s2)C1` ?
result: < 4.60

query: Could you tell me which pIC50 is on file for O=C(O)C1CN(c2nc(-c3ccc(Oc4ccccc4)cc3)c(-c3ccccc3)s2)CCO1 (stereo not shown) ?
result: > 5.30

query: Could you tell me which pIC50 is on file for O=C(O)C1CN(c2nc(-c3ccc(-c4cnco4)cc3)c(-c3cccnc3)s2)CCO1 (stereo not shown) ?
result: < 4.60
